Recorded values, source patent US20140187548A1.

Kindly supply the reported log10(IC50) values for the records listed here.
measured-target: human kinase Mps-1 (Homo sapiens, UniProt P33981)
Construct: N-terminally GST-tagged human full length recombinant Mps-1 kinase; GST (N)
Sequence (P33981 whole entry): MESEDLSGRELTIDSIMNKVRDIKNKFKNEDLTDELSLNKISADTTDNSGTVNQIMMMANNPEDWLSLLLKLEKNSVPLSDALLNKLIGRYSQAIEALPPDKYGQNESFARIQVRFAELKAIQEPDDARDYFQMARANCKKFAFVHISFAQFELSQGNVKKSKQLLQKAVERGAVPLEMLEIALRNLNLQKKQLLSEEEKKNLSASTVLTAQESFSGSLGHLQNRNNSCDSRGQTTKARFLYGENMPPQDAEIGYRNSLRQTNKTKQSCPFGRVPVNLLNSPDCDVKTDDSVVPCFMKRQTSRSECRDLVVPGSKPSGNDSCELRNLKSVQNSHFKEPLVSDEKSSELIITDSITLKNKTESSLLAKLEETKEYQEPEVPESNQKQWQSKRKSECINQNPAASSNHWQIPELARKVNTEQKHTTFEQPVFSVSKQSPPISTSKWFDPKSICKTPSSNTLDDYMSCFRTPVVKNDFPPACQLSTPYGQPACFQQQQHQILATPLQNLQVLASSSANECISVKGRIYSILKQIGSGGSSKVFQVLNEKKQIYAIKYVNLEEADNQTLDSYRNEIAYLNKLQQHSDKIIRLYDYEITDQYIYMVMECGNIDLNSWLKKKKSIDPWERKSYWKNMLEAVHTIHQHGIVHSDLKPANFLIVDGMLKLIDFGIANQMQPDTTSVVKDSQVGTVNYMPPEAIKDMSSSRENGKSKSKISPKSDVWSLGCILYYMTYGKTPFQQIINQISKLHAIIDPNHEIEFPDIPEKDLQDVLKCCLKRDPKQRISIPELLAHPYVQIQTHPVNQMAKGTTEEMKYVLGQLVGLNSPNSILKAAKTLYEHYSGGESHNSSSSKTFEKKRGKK
assay-summary: Mps-1 kinase assay (TR-FRET)
assay-conditions: N-terminally GST-tagged human full length recombinant Mps-1; 10 μM ATP; 1 μM peptide substrate; 15 min pre-incubation; 60 min at 22° C.
log10 IC50, nM

Q: Answer with the recorded log10(IC50) for the compound listed here: CC(C)CNc1nc(-c2ccc(C(C)O)cc2)cn2c(-c3ccc(C(=O)NC4CC4)cc3)cnc12 (racemic)
Result: 0.04

Q: Answer with the recorded log10(IC50) for the compound listed here: CC(C)CNc1nc(-c2ccc3ncccc3c2)cn2c(-c3ccc(C(=O)NC4CC4)cc3)cnc12
Result: 0.52

Q: Answer with the recorded log10(IC50) for the compound listed here: CN(C)c1ccc(-c2cn3c(-c4ccc(C(=O)NC5CC5)c(F)c4)cnc3c(NCc3ccnn3C)n2)cc1
Result: 1.23

Q: Answer with the recorded log10(IC50) for the compound listed here: CC(C)CNc1nc(-c2cccc(C(N)=O)c2)cn2c(-c3ccc(C(=O)NC4CC4)cc3)cnc12
Result: 0.08

Q: Answer with the recorded log10(IC50) for the compound listed here: O=C(NC1CC1)c1ccc(-c2cnc3c(NCC(F)(F)F)nc(-c4ccccc4)cn23)cc1
Result: 0.45

Q: Answer with the recorded log10(IC50) for the compound listed here: O=C(NC1CC1)c1ccc(-c2cnc3c(NCCCO)nc(-c4ccccc4)cn23)cc1
Result: 0.20

Q: Answer with the recorded log10(IC50) for the compound listed here: CC(C)CNc1nc(-c2cc(F)cc(F)c2)cn2c(-c3ccc(C(=O)NC4CC4)cc3)cnc12
Result: 1.63

Q: Answer with the recorded log10(IC50) for the compound listed here: CC(C)CNc1nc(-c2cccc3[nH]ccc23)cn2c(-c3ccc(C(=O)NC4CC4)cc3)cnc12
Result: 0.41

Q: Answer with the recorded log10(IC50) for the compound listed here: COC(=O)c1cccc(-c2cn3c(-c4ccc(C(=O)NC5CC5)cc4)cnc3c(NCC(C)C)n2)c1
Result: 0.36

Q: Answer with the recorded log10(IC50) for the compound listed here: Cc1cc(-c2cnc3c(NCC4CCN(C)C4)nc(-c4ccc(F)cc4)cn23)ccc1C(=O)NC1CC1 (stereo not drawn)
Result: 2.08

Q: Answer with the recorded log10(IC50) for the compound listed here: CC(C)CNc1nc(-c2ccccc2CO)cn2c(-c3ccc(C(=O)NC4CC4)cc3)cnc12
Result: 0.08

Q: Answer with the recorded log10(IC50) for the compound listed here: O=C(NC1CC1)c1ccc(-c2cnc3c(NCC4CCCCO4)nc(-c4ccccc4)cn23)cc1 (stereo not drawn)
Result: 0.11

Q: Answer with the recorded log10(IC50) for the compound listed here: CC(C)CNc1nc(-c2ccccc2F)cn2c(-c3ccc(C(=O)NC4CC4)cc3)cnc12
Result: 0.57

Q: Answer with the recorded log10(IC50) for the compound listed here: CNC(=O)CNc1nc(-c2ccccc2)cn2c(-c3ccc(C(=O)NC4CC4)cc3)cnc12
Result: 1.51

Q: Answer with the recorded log10(IC50) for the compound listed here: CC(C)CNc1nc(-c2ccc(S(=O)(=O)NC3CC3)cc2)cn2c(-c3ccc(C(=O)NC4CC4)cc3)cnc12
Result: 0.64
